biological target: T1, monkey GPC3-His protein (monkey); assay: ELISA, monkey GPC3-His coated;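 note: Plate-coated antigen at 1 µg/mL, antibody binding 2 h at 37 °C, detected with HRP-labeled secondary antibody and TMB, absorbance at 450 nm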
T1 construct: Bought recombinant protein; also called monkey GPC3 protein
Recorded measurements of OD450 at 0.01 nM, one per entry
Please state the figure in OD450; there is no need to write the unit.

F4.13.7 (antibody, human IgG1, kappa, V domains shown, Human-murine chimeric antibody) VH: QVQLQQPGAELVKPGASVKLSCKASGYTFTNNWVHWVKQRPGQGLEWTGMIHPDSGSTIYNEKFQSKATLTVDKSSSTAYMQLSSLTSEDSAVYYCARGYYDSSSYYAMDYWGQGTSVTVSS VL: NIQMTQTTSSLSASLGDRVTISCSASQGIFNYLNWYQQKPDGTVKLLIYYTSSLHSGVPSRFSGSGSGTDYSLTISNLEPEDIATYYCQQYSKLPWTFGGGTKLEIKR | 0.36

Input line: Give the value of OD450 at 0.01 nM reported for the following: F4.21.16 (antibody, human IgG1, kappa, V domains shown, Human-murine chimeric antibody) VH: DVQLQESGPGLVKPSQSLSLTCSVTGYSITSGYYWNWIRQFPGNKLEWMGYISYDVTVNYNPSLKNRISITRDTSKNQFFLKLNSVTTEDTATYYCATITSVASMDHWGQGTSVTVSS VL: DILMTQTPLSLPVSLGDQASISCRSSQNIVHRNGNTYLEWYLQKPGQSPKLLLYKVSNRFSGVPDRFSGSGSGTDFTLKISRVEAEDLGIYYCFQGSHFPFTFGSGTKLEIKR
Output line: 0.05
